target_or_system: 5HT2C receptors (Homo sapiens)
Sequence (P28335 33-458): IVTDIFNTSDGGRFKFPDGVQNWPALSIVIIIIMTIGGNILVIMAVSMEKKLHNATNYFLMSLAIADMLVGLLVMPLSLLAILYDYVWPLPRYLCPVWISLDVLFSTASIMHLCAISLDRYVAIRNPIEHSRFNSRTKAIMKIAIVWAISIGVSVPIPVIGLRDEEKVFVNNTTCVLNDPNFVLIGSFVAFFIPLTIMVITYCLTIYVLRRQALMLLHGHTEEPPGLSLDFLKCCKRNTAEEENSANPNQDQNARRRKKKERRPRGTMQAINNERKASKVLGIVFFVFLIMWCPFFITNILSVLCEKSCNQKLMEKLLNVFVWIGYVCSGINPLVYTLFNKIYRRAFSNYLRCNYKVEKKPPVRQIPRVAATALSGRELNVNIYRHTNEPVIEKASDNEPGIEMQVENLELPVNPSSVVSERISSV
method: Human 5-HT2C functional assay in 1321N1 cells (intracellular calcium, FLIPR)
Assay type: cell-based
Design: expressed in transfected cells; host or cells: 1321N1 cells
measurement_setup: 1321N1 cells stably transfected, maximum calcium response; read-out: EC50 (μM), 5-HT2c Agonist Activity
EC50 strictly less than 0.04 µM = class 1. Otherwise class 0.

Solved entries (count: 2):
c1ccc2c(c1)NCCC1CNCCN21 (stereo not drawn) = class 0
O=C1CC2CNCCN2c2cc(Cl)c(Cl)cc2N1 (stereo not drawn) = class 1

Prompt: Check if EC50 falls below 0.04 µM for CCOc1ccc2c(c1)N1CCNCC1CC(=O)N2 (stereo not drawn) .
Response: class 0

Prompt: Does O=C1CC2CN(Cc3ccccc3)CCN2c2cc(Cl)ccc2N1 (stereo not drawn) have EC50 strictly under 0.04 µM?
Response: class 0

Prompt: Is it true that EC50 reported for `O=C1C[C@H]2CNCCN2c2ccccc2N1` is less than 0.04 µM?
Response: class 1

Prompt: A record lists Clc1cc2c(cc1Cl)N1CCNCC1CCN2 (stereo not drawn) . Is its EC50 below 0.04 µM?
Response: class 1

---

target_or_system: human serotonin 5-HT2c receptor (Homo sapiens, UniProt P28335)
Construct: expressed in transfected cells; host or cells: CHO cells (membrane homogenate)
method: Human 5-HT2C receptor radioligand binding assay (agonist site, [125I](±)DOI)
measurement_setup: membranes of transfected CHO cells, 0.2 nM [125I](±)DOI, 15 minutes at 37° C.
As shown below, each of these molecules has a reported log10 of Ki value.
Values are log10 of Ki in µM.

O=C1CC2CNCCN2c2ccc(Br)cc2N1 (centres unmarked) [Example 13] = -0.64
O=C1NCC2CN(Cc3ccccc3)CCN2c2ccc(NS(=O)(=O)c3ccccc3)cc21 (centres unmarked) [Example 47] = 1.52
COc1ccc2c(c1)N1CCNCC1CC(=O)N2 (centres unmarked) [Example 12] = -1.42
O=C1CC2CNCCN2c2ccccc2N1 (centres unmarked) [Example 1] = -1.07
N#Cc1ccc2c(c1)N1CCNCC1CC(=O)N2 (centres unmarked) [Example 11] = -0.72

Prompt: Return log10 of Ki for the following molecule: c1ccc2c(c1)NCCC1CNCCN21 (centres unmarked) [Example 17]
Response: -0.85

Prompt: Specify measured log10 of Ki for Cc1ccc2c(c1)N1CCNCC1CC(=O)N2 (centres unmarked) [Example 10] .
Response: -2.08

Prompt: # return recorded log10 of Ki for input O=C1CC2CNCCN2c2cc(/C=C/c3ccccc3)ccc2N1 (centres unmarked) [Example 6]
Response: -2.46

Prompt: Complete the entry with log10 of Ki for Cc1ccc2c(c1)N1CCNC[C@@H]1CC(=O)N2 [Example 36]
Response: -2.04

Prompt: Please give measured log10 of Ki of the following entry: CN1C(=O)CC2CNCCN2c2ccccc21 (centres unmarked) [Example 20]
Response: -0.66

Prompt: Provide log10 of Ki value for the following molecule: O=C1C[C@H]2CNCCN2c2cc(Cl)ccc2N1 [Example 41]
Response: -2.30

---

target_or_system: 5HT2B receptors (Homo sapiens, UniProt P41595)
Construct: expressed in transfected cells; host or cells: CHO-K1 cells
Sequence (P41595 whole entry): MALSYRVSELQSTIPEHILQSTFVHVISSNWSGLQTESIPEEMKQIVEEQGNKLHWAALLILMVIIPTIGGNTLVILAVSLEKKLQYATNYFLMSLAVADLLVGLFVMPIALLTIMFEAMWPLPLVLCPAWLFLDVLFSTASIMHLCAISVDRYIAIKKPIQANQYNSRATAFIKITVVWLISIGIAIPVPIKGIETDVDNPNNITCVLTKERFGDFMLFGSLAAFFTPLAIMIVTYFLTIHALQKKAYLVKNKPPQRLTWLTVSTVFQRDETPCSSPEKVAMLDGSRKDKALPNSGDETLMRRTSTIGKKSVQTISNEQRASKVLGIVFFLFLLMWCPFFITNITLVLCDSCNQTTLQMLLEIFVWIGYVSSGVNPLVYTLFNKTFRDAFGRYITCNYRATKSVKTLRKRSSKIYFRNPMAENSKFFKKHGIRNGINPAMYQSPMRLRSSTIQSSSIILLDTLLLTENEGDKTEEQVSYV
method: Human 5-HT2B functional assay in CHO-K1 cells (calcium flux, FLIPR)
Assay type: cell-based
measurement_setup: CHO-K1, read-out: Emax (%), 5-HT2B Agonist Activity
value_type: Emax (%)
The answer is to be given in %; state only the numeric part.

Observe how each entry below is paired with its result.
Fc1cccc2c1OCC[C@@H]1CNCCN21 = 80
C[C@@H]1C[C@H]2CNCCN2c2ccccc2O1 (single isomer, unassigned) = 40
[2H]c1ccc2c(c1)OCC[C@H]1CNCCN21 = 15
CCc1ccc2c(c1)N1CCNC[C@@H]1CCO2 = 45
O=C1C[C@@H]2CNCCN2c2cccc(F)c2N1 = 27
Brc1cccc2c1OCC[C@H]1CNCCN21 = 10
Fc1ccc2c(c1)OCC[C@@H]1CNCCN21 = 80
Clc1cc2c(cc1Cl)N1CCNC[C@@H]1CCO2 = 60
Cc1cc(Cl)cc2c1OCC[C@H]1CNCCN21 = 20
Cc1ccc2c(c1)N1CCNC[C@@H]1CC(=O)N2 = 100

Prompt: Read off the recorded Emax for `Clc1ccc2c(c1)N1CCNC[C@H]1CCO2`
Response: 70

Prompt: Please list Emax recorded for the compound O=C1CC2CNCCN2c2cc(-c3ccccn3)ccc2N1 (centres unmarked)
Response: 100

Prompt: Please give the documented Emax of `Fc1ccc2c(c1)N1CCNC[C@H]1CCO2`
Response: 80

Prompt: Please indicate Emax recorded for `COc1ccc2c(c1)N1CCNC[C@@H]1CC(=O)N2`
Response: 80

Prompt: Assign Emax to the following record: `FCCN1CCN2c3cccc(F)c3OCC[C@H]2C1`
Response: 20

Prompt: Quickly give me recorded Emax for `Clc1cc(Cl)c2c(c1)N1CCNC[C@@H]1CCO2`
Response: 50

Prompt: Provide only the value of recorded Emax for `Cc1ccc2c(c1)OCC[C@@H]1CNCCN21`
Response: 70

Prompt: Look up and state reported Emax for `[2H]c1cc2c(cc1[2H])N1CCNC[C@@H]1CCO2`
Response: 20

Prompt: Output measured Emax for this item: c1ccc2c(c1)CCCC1CNCCN21 (centres unmarked)
Response: 40

Prompt: Provide one value: measured Emax of `O=C1C[C@H]2CNCCN2c2cc(Cl)c(Cl)cc2N1`
Response: 100

Prompt: Return value of Emax for input `Fc1ccc2c(c1)OCC[C@H]1CNCCN21` , no commentary.
Response: 20

---

target_or_system: 5HT2C receptors (Homo sapiens)
method: Human 5-HT2C functional assay in CHO-K1 cells (calcium flux, FLIPR)
Format: cell-based
Parameters: expressed in transfected cells; host or cells: CHO-K1 cells
measurement_setup: CHO-K1 cells over-expressing 5HT2C, calcium flux; read-out: EC50 (μM), 5-HT2c Agonist Activity
Catalogue of EC50 readings, one per entry.
The response must be a number in µM with no trailing unit.

Worked cases, answers included:
CCOc1ccc2c(c1)N1CCNC[C@@H]1CC(=O)N2 = 0.02
FCC(CF)N1CCN2c3ccccc3OCC[C@H]2C1 = 2
C[C@H](Cc1ccccc1)Oc1ccc2c(c1)N1CCNC[C@H]1CC(=O)N2 = 0.04

Prompt: # return EC50 of O=C1CC2CNCCN2c2cc(-c3cc4ccccc4s3)ccc2N1 (stereo not drawn) (system: 5HT2C receptors (Homo sapiens))
Response: 1

Prompt: Report EC50 on 5HT2C receptors (Homo sapiens) for this entry: O=C1CC2CNCCN2c2cc(-c3ccsc3)ccc2N1 (stereo not drawn)
Response: 0.07

Prompt: Give the observed EC50 of O=C1CC2CNCCN2c2ncccc2N1 (stereo not drawn) for 5HT2C receptors (Homo sapiens).
Response: 0.2

Prompt: Fill in EC50 for `C[C@@H](Oc1ccc2c(c1)N1CCNC[C@@H]1CC(=O)N2)c1cc(F)ccc1F` tested with 5HT2C receptors (Homo sapiens).
Response: 0.001

Prompt: Given CC(O)c1cccc(-c2ccc3c(c2)N2CCNC[C@@H]2CCO3)c1 (stereo partly drawn) , report its EC50 on 5HT2C receptors (Homo sapiens).
Response: 0.0008

Prompt: Recall the reported EC50 of C[C@@H](Oc1ccc2c(c1)N1CCNCC1CC(=O)N2)c1ccccc1 (stereo partly drawn) on 5HT2C receptors (Homo sapiens) and write it down.
Response: 0.01

---

target_or_system: 5HT2C receptors (Homo sapiens, UniProt P28335)
method: Human 5-HT2C functional assay in CHO-K1 cells (calcium flux, FLIPR)
Assay type: cell-based
Set-up: expressed in transfected cells; host or cells: CHO-K1 cells
measurement_setup: CHO-K1 cells; percentage relative to the effect of serotonin; read-out: Emax (%), 5-HT2c Agonist Activity
Procedure: (iii) Human 5-HT2C and 5-HT2B Functional Assay in CHO-K1 Cells […] Fluorescence measurements were read at 25° C. at an excitation wavelength of 480 nm and an emission wavelength of 530 nm in FLIPR (MDS). Baseline fluorescence was measured for the first 10 seconds and then 15 μL of 4× concentrations of serotonin/test compounds was added to the cell plate. The fluorescence intensity was captured every second for the first 1 minute followed by every 5 seconds for an additional 2 minutes. […]
value_type: Emax (%)
Numeric only. Scale: %

The examples below pair each entry with its known result.
CC(O)c1cccc(-c2ccc3c(c2)OCC[C@H]2CNCCN32)c1 (stereo partly drawn) = 100
c1coc(-c2cccc3c2OCC[C@H]2CNCCN32)c1 = 90
O=C1CC2CNCCN2c2cc(-c3ccoc3)ccc2N1 (stereo not drawn) = 110
O=C1CC2CNCCN2c2cc(-c3ccc4ccccc4c3)ccc2N1 (stereo not drawn) = 100
CCC(Oc1ccc2c(c1)N1CCNC[C@@H]1CC(=O)N2)c1ccccc1 (stereo partly drawn) = 110
O=C1CC2CNCCN2c2cc(-c3cccc4ccccc34)ccc2N1 (stereo not drawn) = 110
CCN1C(=O)CC2CNCCN2c2ccc(Cl)cc21 (stereo not drawn) = 100

Attention now shifts to the item below.
Prompt: Give Emax for CC(O)c1cccc(-c2ccc3c(c2)N2CCNC[C@@H]2CCO3)c1 (stereo partly drawn)
Response: 100
